Form field: AIRE transcriptional activation functional score (one value per entry).
B1: library; numbered along this chain (parent)
chain: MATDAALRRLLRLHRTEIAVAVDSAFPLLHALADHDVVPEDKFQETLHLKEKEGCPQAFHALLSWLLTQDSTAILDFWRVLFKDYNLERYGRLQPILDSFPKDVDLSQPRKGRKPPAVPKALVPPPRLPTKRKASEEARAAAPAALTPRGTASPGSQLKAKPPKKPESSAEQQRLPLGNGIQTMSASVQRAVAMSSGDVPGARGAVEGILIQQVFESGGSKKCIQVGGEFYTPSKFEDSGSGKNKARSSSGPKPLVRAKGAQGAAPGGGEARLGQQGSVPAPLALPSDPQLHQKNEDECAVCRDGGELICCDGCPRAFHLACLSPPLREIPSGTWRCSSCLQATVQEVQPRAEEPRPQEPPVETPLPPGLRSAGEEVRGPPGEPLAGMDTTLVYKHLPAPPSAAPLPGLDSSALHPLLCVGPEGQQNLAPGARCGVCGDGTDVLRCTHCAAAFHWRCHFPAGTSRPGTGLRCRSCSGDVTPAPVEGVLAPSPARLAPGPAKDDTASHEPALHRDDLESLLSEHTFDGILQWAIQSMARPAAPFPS

variants of: B1; assay: AIRE transcriptional activation functional score (insulin promoter-GFP; nonsense median 0, synonymous median 1) (normalised score); higher = higher AIRE activity (more reporter activation); details: with insulin promoter-GFP reporter in HEK293

mutation-descriptor	measurement
P466R	0.843
R247C	1.05
A317C	1.28
I309N	1.23
T447M	1.49
A541H	0.976

Challenge: Find the recorded AIRE transcriptional activation functional score belonging to I211D and report it.
Response given: 0.837

The reported numbers originate from the supplement of paper PMC12667976.
